This collection of values is drawn from the NIST ThermoML archive (doi:10.1016/j.jct.2015.12.021).

run_parameters: 333.15 K; 20000 kPa; Liquid; Vibrating wire viscometry
recorded_endpoint: viscosity (mPa·s)

{"compound": "CCCCCCCCCCCC [dodecane]", "unit_name": "mPa·s", "viscosity": 1.001}

A: CCCCCCC [heptane]
B: Cc1ccc(C)c(C)c1 [1,2,4-trimethylbenzene]
Input line: Given A and B , report the one with the higher recorded viscosity. Kindly give the label for the entry you pick.
Output line: B

====

run_parameters: 313.15 K; 30000 kPa; Liquid; Vibrating wire viscometry
recorded_endpoint: viscosity (mPa·s)

{"mol_smiles": "CCCCCCCCCCCC", "viscosity / mPa·s": 1.476}
{"mol_smiles": "Cc1ccccc1", "viscosity / mPa·s": 0.5914}
{"mol_smiles": "CC(C)CC(C)(C)C", "viscosity / mPa·s": 0.5775}

I: CCCCCCC
II: Cc1ccc(C)c(C)c1
Input line: Kindly identify the item with the lower viscosity figure among these two: I and II Kindly give the label for the entry you pick.
Output line: I
(I: 0.4462 mPa·s, II: 0.8894 mPa·s)
